Exercise: for every item that follows, state its recorded log10 Ki.
A difference of one corresponds to tenfold Ki; all values are log10 with Ki in nM.

Response field log10 Ki (Cannabinoid receptor 1 (Rattus norvegicus)) for item "CCCCCn1cc(C(=O)Cc2ccc(C)cc2)c2ccccc21" : 2.25

Response field log10 Ki (Cannabinoid receptor 1 (Rattus norvegicus)) for item "CCCCCn1c(C)c(C(=O)Cc2cccc(OC)c2)c2ccccc21" : 1.79

Response field log10 Ki (Cannabinoid receptor 1 (Rattus norvegicus)) for item "CCCCCn1cc(C(=O)Cc2ccccc2Cl)c2ccccc21" : 0.90

Response field log10 Ki (Cannabinoid receptor 1 (Rattus norvegicus)) for item "CCCCCn1cc(C(=O)Cc2cccc(Cl)c2)c2ccccc21" : 1.58

Response field log10 Ki (Cannabinoid receptor 1 (Rattus norvegicus)) for item "CCCCCn1c(C)c(C(=O)Cc2ccccc2Br)c2ccccc21" : 1.18

Response field log10 Ki (Cannabinoid receptor 1 (Rattus norvegicus)) for item "CCCCCn1c(C)c(C(=O)Cc2ccccc2C)c2ccccc21" : 1.36

* * *

Here we list compounds with their recorded Ki when tested on Cannabinoid receptor 2 (Homo sapiens, UniProt P34972).
Sequence (P34972 whole entry): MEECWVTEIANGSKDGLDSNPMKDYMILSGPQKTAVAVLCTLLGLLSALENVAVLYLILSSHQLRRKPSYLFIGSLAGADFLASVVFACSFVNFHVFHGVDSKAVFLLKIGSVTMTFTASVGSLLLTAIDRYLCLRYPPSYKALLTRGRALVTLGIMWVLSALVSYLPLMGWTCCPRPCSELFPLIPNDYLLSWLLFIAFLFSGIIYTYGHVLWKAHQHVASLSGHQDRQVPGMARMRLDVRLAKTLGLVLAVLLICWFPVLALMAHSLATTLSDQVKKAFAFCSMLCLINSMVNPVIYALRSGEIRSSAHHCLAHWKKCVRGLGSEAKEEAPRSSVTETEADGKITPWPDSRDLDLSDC
Use nM as the unit, but write only the number.

Noted for "CCCCCn1c(C)c(C(=O)Cc2ccc(F)cc2)c2ccccc21" : its Ki reads 781

Noted for "CCCCCn1cc(C(=O)Cc2ccc(OC)cc2)c2ccccc21" : its Ki reads 444

Noted for "CCCCCn1c(C)c(C(=O)Cc2ccc(OC)cc2)c2ccccc21" : its Ki reads 645

Noted for "CCCCCn1cc(C(=O)Cc2ccc(C)cc2)c2ccccc21" : its Ki reads 570

Noted for "CCCCCn1c(C)c(C(=O)Cc2ccccc2F)c2ccccc21" : its Ki reads 76

Noted for "CCCCCn1c(C)c(C(=O)Cc2ccc(Cl)cc2)c2ccccc21" : its Ki reads 3720

Noted for "CCCCCn1cc(C(=O)Cc2ccccc2C)c2ccccc21" : its Ki reads 146

Noted for "CCCCCn1c(C)c(C(=O)Cc2ccccc2C)c2ccccc21" : its Ki reads 19

Noted for "CCCCCn1c(C)c(C(=O)Cc2cccc(Cl)c2)c2ccccc21" : its Ki reads 138

Noted for "CCCCCn1cc(C(=O)Cc2ccccc2Cl)c2ccccc21" : its Ki reads 7

Noted for "CCCCCn1cc(C(=O)Cc2ccc(Cl)cc2)c2ccccc21" : its Ki reads 498

Noted for "CCCCCn1cc(C(=O)Cc2cccc(Cl)c2)c2ccccc21" : its Ki reads 106

Noted for "CCCCCn1c(C)c(C(=O)Cc2cccc(OC)c2)c2ccccc21" : its Ki reads 84

Noted for "CCCCCn1c(C)c(C(=O)Cc2cccc(F)c2)c2ccccc21" : its Ki reads 182

Noted for "CCCCCn1c(C)c(C(=O)Cc2ccccc2)c2ccccc21" : its Ki reads 180

Noted for "CCCCCn1c(C)c(C(=O)Cc2ccccc2Cl)c2ccccc21" : its Ki reads 25

* * *

Exercise: for every item that follows, state its recorded Ki.
target: Cannabinoid receptor 1 (Rattus norvegicus, UniProt P20272); experiment: Binding affinity to displace [3H]CP-55940 from CB1 receptor of rat brain
Sequence (P20272 whole entry): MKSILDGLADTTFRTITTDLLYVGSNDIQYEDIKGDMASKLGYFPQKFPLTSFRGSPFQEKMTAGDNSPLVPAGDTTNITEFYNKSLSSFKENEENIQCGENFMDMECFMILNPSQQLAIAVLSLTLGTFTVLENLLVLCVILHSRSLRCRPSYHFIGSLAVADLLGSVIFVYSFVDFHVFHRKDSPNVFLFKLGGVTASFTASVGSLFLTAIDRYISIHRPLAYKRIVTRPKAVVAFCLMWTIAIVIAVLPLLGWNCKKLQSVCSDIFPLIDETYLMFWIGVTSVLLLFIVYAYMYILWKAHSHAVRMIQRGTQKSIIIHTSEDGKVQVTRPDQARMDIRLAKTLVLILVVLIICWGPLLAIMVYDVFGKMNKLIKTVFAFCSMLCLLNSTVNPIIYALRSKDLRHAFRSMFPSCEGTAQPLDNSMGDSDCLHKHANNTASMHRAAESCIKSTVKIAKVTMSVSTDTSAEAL
Use nM as the unit, but write only the number.

Noted for "CCCCCn1cc(C(=O)Cc2cccc(F)c2)c2ccccc21" : its Ki reads 72

Noted for "CCCCCn1cc(C(=O)Cc2ccccc2)c2ccccc21" : its Ki reads 90

Noted for "CCCCCn1cc(C(=O)Cc2ccc(OC)cc2)c2ccccc21" : its Ki reads 1060

Noted for "CCCCCn1c(C)c(C(=O)Cc2ccccc2OC)c2ccccc21" : its Ki reads 25

Noted for "CCCCCn1cc(C(=O)Cc2ccccc2F)c2ccccc21" : its Ki reads 23

Noted for "CCCCCn1c(C)c(C(=O)Cc2cccc(Cl)c2)c2ccccc21" : its Ki reads 117

Noted for "CCCCCn1c(C)c(C(=O)Cc2cccc(F)c2)c2ccccc21" : its Ki reads 430

Noted for "CCCCCn1cc(C(=O)Cc2ccccc2C)c2ccccc21" : its Ki reads 29

Noted for "CCCCCn1c(C)c(C(=O)Cc2ccc(C)cc2)c2ccccc21" : its Ki reads 746

Noted for "CCCCCn1c(C)c(C(=O)Cc2ccc(F)cc2)c2ccccc21" : its Ki reads 2860

Noted for "CCCCCn1c(C)c(C(=O)Cc2ccccc2F)c2ccccc21" : its Ki reads 39

Noted for "CCCCCn1c(C)c(C(=O)Cc2ccc(OC)cc2)c2ccccc21" : its Ki reads 1680

Noted for "CCCCCn1c(C)c(C(=O)Cc2ccccc2Cl)c2ccccc21" : its Ki reads 13

Noted for "CCCCCn1cc(C(=O)Cc2ccc(F)cc2)c2ccccc21" : its Ki reads 422
